Each recorded value in this set is attributed to paper PMC4624681.

- experimental target: T1, Zaire GP (1–320) with a His tag (Ebolavirus, Zaire strain, UniProt Q05320 33-320)
- T1 chain: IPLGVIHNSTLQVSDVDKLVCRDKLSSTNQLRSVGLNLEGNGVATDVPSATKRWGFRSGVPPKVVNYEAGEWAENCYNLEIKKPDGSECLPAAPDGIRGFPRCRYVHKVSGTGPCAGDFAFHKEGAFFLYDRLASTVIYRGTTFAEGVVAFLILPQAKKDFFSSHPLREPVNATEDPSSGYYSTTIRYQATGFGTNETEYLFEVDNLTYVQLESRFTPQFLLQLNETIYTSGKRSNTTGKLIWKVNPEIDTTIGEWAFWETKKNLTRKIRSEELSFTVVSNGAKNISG
- assay explanation: SPR
Below, each entry is listed with its recorded Kd.
State the answer as a number, implicitly in µM.

T41 (CC’-FG) chimera: hTIM-4 Ig V with the CC’ and FG loops of hTIM-1 (domain or fragment) VTSETVVTEVLGHRVTLPCLYSSWSHNSNSMCWNRGSCSLFTCKEALIRTDGMRVTSRKSAKYRLQGTIPRGDVSLTILNPSESDSGVYCCRIEHRGWFNDVKINVRLNLQRASTT | 208

Task: Any idea what Kd was measured for T41 (BC-CC’) chimera: hTIM-4 Ig V with the BC and CC’ loops of hTIM-1 (domain or fragment) VTSETVVTEVLGHRVTLPCLYSGAVTSMCWNRGSCSLFTCKEALIRTDGMRVTSRKSAKYRLQGTIPRGDVSLTILNPSESDSGVYCCRIEVPGWFNDVKINVRLNLQRASTT ?
Output: 73.2

Task: Report Kd for T41 (BC-CC’-FG) chimera: hTIM-4 Ig V with the BC, CC’ and FG loops of hTIM-1 (domain or fragment) VTSETVVTEVLGHRVTLPCLYSGAVTSMCWNRGSCSLFTCKEALIRTDGMRVTSRKSAKYRLQGTIPRGDVSLTILNPSESDSGVYCCRIEHRGWFNDVKINVRLNLQRASTT please.
Output: 72.4

Task: Kd lookup needed for T14 (FG) chimera: hTIM-1 Ig V with the FG loop of hTIM-4 (domain or fragment) VKVGGEAGPSVTLPCHYSGAVTSMCWNRGSCSLFTCQNGIVWTNGTHVTYRKDTRYKLLGDLSRRDVSLTIENTAVSDSGVYCCRVEVPGWFNDMKITVSLEIVPPKV , thanks.
Output: 57.9
